Assay: Tmax in Sprague-Dawley rat at 2 mg/kg, iv
Type: ADME, organism-based
Set-up: dose 2 mg/kg, route intravenous
Conditions: in vivo
reported.metric: Tmax (min)
The reply should contain only the number, in min.

## Input Can you look up the measured Tmax of CC(C)COc1ccc(-c2ccnc(N)n2)cc1C#N for me?
## Output 1.8

----------
Assay: Tmax in Sprague-Dawley rat at 10 mg/kg, po
Assay type: ADME, organism-based
Design: dose 10 mg/kg, route oral
Conditions: in vivo
# Tmax listing for each entry below
// return numeric value only (unit: min, not printed)

Worked set:
molecule="N#Cc1cc(-c2cc(=O)[nH]c(N)n2)ccc1OCC1CCC(C(=O)O)CC1 (stereo unspecified)" val=240
molecule=COC(=O)C(C)(C)COc1ccc(-c2cc(=O)[nH]c(N)n2)cc1C#N val=45
molecule=CC(C)COc1ccc(-c2ccnc(N)n2)cc1C#N val=45
molecule=CC(C)(C)COc1ccc(-c2cc(=O)[nH]c(N)n2)cc1C#N val=30
molecule=CC(C)COc1ccc(-c2cc(=O)[nH]cn2)cc1C#N val=15

For the next question, use this molecule.
## Input Look up Tmax: N#Cc1cc(-c2cc(O)nc(N)n2)ccc1OCC1CCCCC1
## Output 60

----------
Target: Xanthine dehydrogenase/oxidase (Bos taurus, UniProt P80457)
Sequence (P80457 whole entry): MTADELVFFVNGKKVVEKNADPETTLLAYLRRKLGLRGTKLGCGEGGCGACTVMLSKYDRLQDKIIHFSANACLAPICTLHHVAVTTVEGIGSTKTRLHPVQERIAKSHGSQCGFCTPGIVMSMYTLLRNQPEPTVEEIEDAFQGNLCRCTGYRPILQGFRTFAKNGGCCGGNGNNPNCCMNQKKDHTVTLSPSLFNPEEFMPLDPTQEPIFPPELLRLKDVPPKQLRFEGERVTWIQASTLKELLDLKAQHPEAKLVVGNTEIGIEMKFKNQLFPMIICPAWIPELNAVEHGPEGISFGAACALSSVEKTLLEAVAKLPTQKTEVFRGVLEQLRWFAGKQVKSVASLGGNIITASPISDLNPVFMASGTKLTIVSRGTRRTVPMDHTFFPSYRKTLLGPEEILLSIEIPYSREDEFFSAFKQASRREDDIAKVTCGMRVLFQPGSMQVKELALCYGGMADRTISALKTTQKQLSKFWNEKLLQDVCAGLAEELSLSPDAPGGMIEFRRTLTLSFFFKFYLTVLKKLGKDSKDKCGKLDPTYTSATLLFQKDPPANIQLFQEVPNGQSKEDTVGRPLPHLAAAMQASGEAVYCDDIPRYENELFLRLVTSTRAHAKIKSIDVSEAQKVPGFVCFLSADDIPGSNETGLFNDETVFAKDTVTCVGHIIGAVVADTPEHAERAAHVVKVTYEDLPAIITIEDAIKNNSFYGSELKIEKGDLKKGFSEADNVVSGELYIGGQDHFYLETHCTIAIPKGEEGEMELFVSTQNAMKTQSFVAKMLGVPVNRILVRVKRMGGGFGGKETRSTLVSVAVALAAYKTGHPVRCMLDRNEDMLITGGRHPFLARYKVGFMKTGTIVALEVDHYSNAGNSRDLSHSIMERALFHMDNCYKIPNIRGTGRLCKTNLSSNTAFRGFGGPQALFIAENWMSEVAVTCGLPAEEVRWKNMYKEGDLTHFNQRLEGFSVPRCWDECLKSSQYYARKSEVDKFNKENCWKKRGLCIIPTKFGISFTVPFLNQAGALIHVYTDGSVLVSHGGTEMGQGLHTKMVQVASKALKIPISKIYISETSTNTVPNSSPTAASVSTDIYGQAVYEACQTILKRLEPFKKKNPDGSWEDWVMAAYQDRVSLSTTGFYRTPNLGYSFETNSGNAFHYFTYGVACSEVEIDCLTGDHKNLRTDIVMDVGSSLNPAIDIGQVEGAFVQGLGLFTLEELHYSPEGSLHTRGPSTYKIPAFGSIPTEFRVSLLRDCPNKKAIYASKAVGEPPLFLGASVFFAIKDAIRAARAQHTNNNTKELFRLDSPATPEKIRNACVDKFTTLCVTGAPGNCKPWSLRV
reported.metric: pIC50
The value called pIC50 is obtained by taking minus log10 of the concentration in mol/L.

Known pIC50 results, listed for orientation:
compound=N#Cc1cc(-c2ccnc(N)n2)ccc1OCc1ccc(F)cc1 reported_metric=pIC50 val=6.82
compound="COC(=O)C1CCC(COc2ccc(-c3cc(O)nc(N)n3)cc2C#N)CC1 (stereo not given)" reported_metric=pIC50 val=7.72
compound=COC(=O)c1ccc(COc2ccc(-c3cc(O)nc(N)n3)cc2C#N)cc1 reported_metric=pIC50 val=8.05
compound="CC(C)C(C)Oc1ccc(-c2cc(O)nc(N)n2)cc1C#N (stereo not given)" reported_metric=pIC50 val=7.89
compound=CC(C)(C)c1ccc(COc2ccc(-c3cc(=O)[nH]c(N)n3)cc2C#N)cc1 reported_metric=pIC50 val=7.72

## Input Fill in the blank: the reported pIC50 of CC(C)(COc1ccc(-c2cc(O)nc(N)n2)cc1C#N)C(=O)O is ____.
## Output 8.30

## Input Bench note: what pIC50 did N#Cc1cc(-c2cc(=O)[nH]c(N)n2)ccc1OCc1ccc(F)cc1C(F)(F)F show?
## Output 7.96

## Input Please report the recorded pIC50 for N#Cc1cc(-c2ccnc(N)n2)ccc1OCC1CCC1 .
## Output 6.40

## Input Param item = CC(C)COc1ccc(-c2cc(=O)[nH]cn2)cc1C#N ; retrieve measured pIC50.
## Output 7.22

----------
Assay: Elimination half life in Sprague-Dawley rat at 2 mg/kg, iv
Format: ADME, organism-based
Set-up: dose 2 mg/kg, route intravenous
Settings: in vivo, read-out: beta t1/2 (converted)
reported.metric: half-life (h)
Note: unit h is implicit; provide only the numeric part.

## Input # get_value(readout='half-life', item= CC(C)COc1ccc(-c2ccnc(N)n2)cc1C#N )
## Output 5.96

----------
Assay: AUClast in Sprague-Dawley rat at 10 mg/kg, po
Assay type: ADME, organism-based
Parameters: time 0 - last, dose 10 mg/kg, route oral
Details: plasma
reported.metric: AUC(0-t)
Number plus unit, in that order.

compound=CC(C)(COc1ccc(-c2cc(O)nc(N)n2)cc1C#N)C(=O)O reported_metric=AUC(0-t) val="19.5 µg·h/mL"
compound=CC(C)COc1ccc(-c2ccnc(N)n2)cc1C#N reported_metric=AUC(0-t) val="2 µg·h/mL"
compound=CC(C)COc1ccc(-c2cc(=O)[nH]cn2)cc1C#N reported_metric=AUC(0-t) val="0.416 µg·h/mL"
compound=COC(=O)C(C)(C)COc1ccc(-c2cc(=O)[nH]c(N)n2)cc1C#N reported_metric=AUC(0-t) val="0.0448 µg·h/mL"
compound=CC(C)(C)COc1ccc(-c2cc(=O)[nH]c(N)n2)cc1C#N reported_metric=AUC(0-t) val="0.297 µg·h/mL"
compound="N#Cc1cc(-c2cc(=O)[nH]c(N)n2)ccc1OCC1CCC(C(=O)O)CC1 (configuration not stated)" reported_metric=AUC(0-t) val="0.119 µg·h/mL"

Please turn your attention to the following entry.
## Input So what's the measured AUC(0-t) for this one? N#Cc1cc(-c2cc(O)nc(N)n2)ccc1OCC1CCCCC1
## Output 0.109 µg·h/mL
